target: F508delCFTR (Homo sapiens, UniProt P13569, DEL508-508); construct: expressed in transfected cells; host or cells: CFBE41o- human lung-derived epithelial cells (CFBE4lo-F508delCFTR-HRP), doxycycline-inducible; assay: Cell Surface Expression-Horse Radish Peroxidase (CSE-HRP) Assay; type: cell-based; details: test compound without co-corrector; read-out: EC50 (without co-corrector)
Sequence (P13569 with tags, fused parts or gaps DEL508-508): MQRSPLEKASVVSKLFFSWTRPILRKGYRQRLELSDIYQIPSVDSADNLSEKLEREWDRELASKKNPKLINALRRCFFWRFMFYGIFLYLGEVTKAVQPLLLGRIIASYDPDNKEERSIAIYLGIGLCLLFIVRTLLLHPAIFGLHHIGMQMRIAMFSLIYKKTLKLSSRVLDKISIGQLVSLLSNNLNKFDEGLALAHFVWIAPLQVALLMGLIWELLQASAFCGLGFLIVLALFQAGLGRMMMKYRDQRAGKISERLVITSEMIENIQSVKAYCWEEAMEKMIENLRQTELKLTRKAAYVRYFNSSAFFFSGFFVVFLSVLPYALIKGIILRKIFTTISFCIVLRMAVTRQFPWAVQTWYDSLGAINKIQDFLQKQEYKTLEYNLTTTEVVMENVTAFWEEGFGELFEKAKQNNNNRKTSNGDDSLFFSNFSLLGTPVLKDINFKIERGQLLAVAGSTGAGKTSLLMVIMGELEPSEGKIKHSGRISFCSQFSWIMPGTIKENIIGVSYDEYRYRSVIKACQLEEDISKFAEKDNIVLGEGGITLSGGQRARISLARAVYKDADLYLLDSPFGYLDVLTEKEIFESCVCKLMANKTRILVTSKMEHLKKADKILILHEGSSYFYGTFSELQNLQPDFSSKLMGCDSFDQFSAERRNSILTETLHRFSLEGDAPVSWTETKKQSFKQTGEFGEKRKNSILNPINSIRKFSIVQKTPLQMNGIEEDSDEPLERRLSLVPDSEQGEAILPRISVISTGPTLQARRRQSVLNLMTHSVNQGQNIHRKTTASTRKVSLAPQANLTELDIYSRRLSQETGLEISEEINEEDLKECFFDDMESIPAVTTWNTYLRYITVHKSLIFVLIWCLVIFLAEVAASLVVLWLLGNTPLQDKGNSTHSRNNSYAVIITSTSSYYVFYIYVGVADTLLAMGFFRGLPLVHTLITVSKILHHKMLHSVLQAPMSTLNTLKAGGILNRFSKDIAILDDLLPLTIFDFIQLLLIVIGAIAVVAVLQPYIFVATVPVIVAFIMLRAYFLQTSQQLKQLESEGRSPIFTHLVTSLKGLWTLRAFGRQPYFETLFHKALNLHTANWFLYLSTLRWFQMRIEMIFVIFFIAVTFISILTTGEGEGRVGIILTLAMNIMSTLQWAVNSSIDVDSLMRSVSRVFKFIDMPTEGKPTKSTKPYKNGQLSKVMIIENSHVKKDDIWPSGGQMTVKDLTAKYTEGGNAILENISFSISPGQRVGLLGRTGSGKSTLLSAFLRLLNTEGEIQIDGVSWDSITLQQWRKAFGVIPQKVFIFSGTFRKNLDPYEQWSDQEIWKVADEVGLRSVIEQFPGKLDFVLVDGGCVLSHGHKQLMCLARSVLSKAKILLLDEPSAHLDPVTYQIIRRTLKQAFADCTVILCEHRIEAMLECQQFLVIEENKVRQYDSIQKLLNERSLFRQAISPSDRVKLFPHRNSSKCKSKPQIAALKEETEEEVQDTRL
pEC50: −log10 of the molar value.
Entries and their measured pEC50 follow.
value.kind: pEC50

CC(C)(C)[C@H]1[C@H](NCc2ccc3c(c2)CCO3)[C@H](c2ccccc2)N(C(=O)C2CCCCC2)[C@@H]1C(=O)O [III-122] ... < 5.00
COc1cc(OC)nc(N[C@@H]2[C@@H](C(C)(C)C)[C@H](C(=O)O)N(C(=O)C3CCCCC3)[C@@H]2c2ccccc2)n1 (racemic) [Example I-1] ... 5.00 to 6.00
COc1ccc(C(C)(C)C)cc1CN[C@H]1[C@H](C(C)(C)C)[C@@H](C(=O)O)N(C(=O)[C@@H]2OCC[C@@H]2C(C)C)[C@H]1c1ccccc1 (relative stereo) [Example I-104] ... 5.00 to 6.00
COc1ccc(C(C)(C)C)cc1CN[C@H]1[C@H](C(C)(C)C)[C@@H](C(=O)O)N(C(=O)C2=C(F)CCCC2)[C@H]1c1ccccc1 [II-411] ... 5.00 to 6.00
COc1ccc(C(C)(C)C)cc1CN[C@H]1[C@H](C(C)(C)C)[C@@H](C(=O)O)N(C(=O)CC(C)C)[C@H]1c1ccccc1 [II-564] ... 5.00 to 6.00
COc1ccc(C2CC2)cc1CN[C@H]1[C@H](C(C)(C)C)[C@@H](C(=O)O)N(C(=O)C2CCCCC2)[C@H]1c1ccccc1 [II-352] ... 5.00 to 6.00

* * *

target: F508delCFTR (Homo sapiens, UniProt P13569, DEL508-508); construct: expressed in transfected cells; host or cells: CFBE41o- human lung-derived epithelial cells (CFBE4lo-F508delCFTR-HRP), doxycycline-inducible; assay: Cell Surface Expression-Horse Radish Peroxidase (CSE-HRP) Assay; assay type: cell-based; conditions: CSE-HRP; test compound without co-corrector; read-out: EC50 (without co-corrector)
pEC50: −log10 of the molar value.
value.kind: pEC50

COc1ccc(C(C)(C)C)cc1CN[C@H]1[C@H](C(C)(C)C)[C@@H](C(=O)O)N(C(=O)Cc2ccccc2C)[C@H]1c1ccccc1 ... > 6.00
COc1cc(C)ccc1CN[C@H]1[C@H](C(C)(C)C)[C@@H](C(=O)O)N(C(=O)C2CCCCC2)[C@H]1c1cccnc1OC ... 5.00 to 6.00
COc1ccc(C(C)(C)C)cc1CN[C@H]1[C@H](C(C)(C)C)[C@@H](C(=O)O)N(C(=O)CC2CCC(F)(F)C2)[C@H]1c1ccccc1 (stereo partly drawn) ... 5.00 to 6.00

* * *

molecular target: F508delCFTR (Homo sapiens, UniProt P13569, DEL508-508); construct: expressed in transfected cells; host or cells: CFBE41o- human lung-derived epithelial cells (CFBE4lo-F508delCFTR-HRP), doxycycline-inducible; test: Cell Surface Expression-Horse Radish Peroxidase (CSE-HRP) Assay; format: cell-based; conditions: test compound without co-corrector; read-out: EC50 (without co-corrector)
value.kind: EC50

COc1nc(C(C)(C)C)ccc1CN[C@H]1[C@H](C(C)(C)C)[C@@H](C(=O)O)N(C(=O)C2CCCCO2)[C@H]1c1ccccc1C(C)C (stereo partly drawn) [Example I-177] ... < 1000 nM
CCc1c(C(=O)N2[C@H](C(=O)O)[C@@H](C(C)(C)C)[C@H](NCc3cc(C(C)(C)C)ccc3OC)[C@@H]2c2ccccc2)cnn1-c1ccc(OC)nn1 [Example I-144] ... 1000 to 10000 nM
COc1nc(C(C)(C)C)ccc1CN[C@H]1[C@H](C(C)(C)C)[C@@H](C(=O)O)N(C(=O)C2CCCCC2)[C@H]1c1ccccc1F [II-525] ... 1000 to 10000 nM
COc1ccc(C(C)(C)C)cc1CN[C@H]1[C@H](C(C)(C)C)[C@@H](C(=O)O)N(C(=O)C(OC)C2CCCCC2)[C@H]1c1ccccc1 (stereo partly drawn) [Example I-160] ... < 1000 nM
COc1ccc(C(C)(C)C)cc1CN[C@H]1[C@H](C(C)(C)C)[C@@H](C(=O)O)N(C(=O)C2CCCC(C)C2)[C@H]1c1ccccc1 (stereo partly drawn) [III-175] ... < 1000 nM
COc1ccc(C(C)(C)C)cc1CN[C@H]1[C@H](C(C)(C)C)[C@@H](C(=O)O)N(C(=O)Cc2c[nH]cn2)[C@H]1c1ccccc1 [Example I-98] ... 1000 to 10000 nM

* * *

target: F508delCFTR (Homo sapiens, UniProt P13569, DEL508-508); construct: expressed in transfected cells; host or cells: CFBE41o- human lung-derived epithelial cells (CFBE4lo-F508delCFTR-HRP), doxycycline-inducible; test: Cell Surface Expression-Horse Radish Peroxidase (CSE-HRP) Assay; type: cell-based; settings: with co-corrector (2 μM of 3-[(2R,4R)-4-({[1-(2,2-difluoro-1,3-benzodioxol-5-yl)cyclopropyl]carbonyl}amino)-7-methoxy-3,4-dihydro-2H-chromen-2-yl]benzoic acid); read-out: EC50 (with co-corrector)
value.kind: EC50

COc1cc2c(cc1CN[C@H]1[C@H](C(C)(C)C)[C@@H](C(=O)O)N(C(=O)OC(C)C)[C@H]1c1ccccc1)CCC2 [III-226] ... 1000 to 10000 nM
COc1ccc(C23CC(C2)C3)cc1CN[C@H]1[C@H](C(C)(C)C)[C@@H](C(=O)O)N(C(=O)[C@H]2CCCCO2)[C@H]1c1cccnc1N(C)C [Example 52] ... 1000 to 10000 nM
COc1ccc(C(F)(F)F)cc1CN[C@H]1[C@H](C(C)(C)C)[C@@H](C(=O)O)N(C(=O)C2CC3CC3C2)[C@H]1c1ccccc1 (stereo partly drawn) [Example I-162] ... 1000 to 10000 nM
COc1ncc(C2CCC2)cc1CN[C@H]1[C@H](C(C)(C)C)[C@@H](C(=O)O)N(C(=O)C2CCCCC2)[C@H]1c1ccccc1C(C)C [Example 117] ... < 1000 nM
COc1ccc(C(C)(C)C)cc1CN[C@H]1[C@H](C(C)(C)C)[C@@H](C(=O)O)N(C(=O)c2cc(C#N)ccc2OC)[C@H]1c1ccccc1 [Example I-90] ... 1000 to 10000 nM
COc1ccc(C(C)(C)C)cc1CN[C@H]1[C@H](C(C)(C)C)[C@@H](C(=O)O)N(C(=O)[C@]2(C)COc3cc4c(cc32)OC(F)(F)O4)[C@H]1c1cccnc1OC [III-230] ... 1000 to 10000 nM

* * *

molecular target: F508delCFTR (Homo sapiens, UniProt P13569, DEL508-508); construct: expressed in transfected cells; host or cells: CFBE41o- human lung-derived epithelial cells (CFBE4lo-F508delCFTR-HRP), doxycycline-inducible; assay: Cell Surface Expression-Horse Radish Peroxidase (CSE-HRP) Assay; format: cell-based; details: with co-corrector (2 μM); maximum at any tested concentration, normalized to on-plate positive control;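 for Maximum % activity (with co-corrector): co-corrector and positive control are both the same reference corrector at 2 µM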
value.kind: Maximum % activity (with co-corrector)

COc1ncc(C2CCC2)cc1CN[C@H]1[C@H](C(C)(C)OC)[C@@H](C(=O)O)N(C(=O)C2CCCCC2)[C@H]1c1ccccc1 [Example I-115] ... +++ (≥350)
COc1ccc(C(C)(C)C)cc1CN[C@H]1[C@H](C(C)(C)C)[C@@H](C(=O)O)N(C(=O)C2Cc3ccccc3O2)[C@H]1c1cccnc1OC (single isomer, unassigned) [Example I-166] ... +++ (≥350)
COc1ccc(C(C)(C)C)cc1CN[C@H]1[C@H](C(C)(C)C)[C@@H](C(=O)O)N(C(=O)C2Cc3ccccc3O2)[C@H]1c1cccnc1N(C)C (single isomer, unassigned) [Example 36] ... +++ (≥350)
COc1ccc(C(F)(F)F)cc1CN[C@H]1[C@H](C(C)(C)C)[C@@H](C(=O)O)N(C(=O)[C@H](OC)c2ccccc2)[C@H]1c1ccccc1 [Example I-20] ... +++ (≥350)
COc1cc(N[C@H]2[C@H](C(C)(C)C)[C@@H](C(=O)O)N(C(=O)C3CCCCC3)[C@H]2c2ccccc2)nc(OC)n1 (racemic) [Example I-9] ... ++ (≥150 and <350)
COc1ccc(C(F)(F)F)cc1CN[C@H]1[C@H](C(C)(C)OC)[C@@H](C(=O)O)N(C(=O)OC(C)C)[C@H]1c1ccccc1 [Example I-174] ... +++ (≥350)
COc1ncc(C2CCC2)cc1CN[C@@H]1[C@@H](C(C)(C)C)[C@H](C(=O)O)N(C(=O)[C@@H]2CCCO2)[C@@H]1c1ccccc1Cl [III-236] ... ++ (≥150 and <350)
COc1ncc(C(F)(F)F)cc1CN[C@H]1[C@H](C(C)(C)C)[C@@H](C(=O)O)N(C(=O)C2CCCCC2)[C@H]1c1ccc(F)cc1 [Example 26] ... +++ (≥350)
CC(C)(C)[C@H]1[C@H](Nc2cncc3ccccc23)[C@H](c2ccccc2)N(C(=O)C2CCCCC2)[C@@H]1C(=O)O [III-162] ... ++ (≥150 and <350)
CC(C)(C)[C@H]1[C@H](Nc2ccc(C3(C#N)CC3)cn2)[C@H](c2ccccc2)N(C(=O)C2CCCCC2)[C@@H]1C(=O)O [III-159] ... ++ (≥150 and <350)
COc1ccc(C(C)(C)C)cc1CN[C@H]1[C@H](C(C)(C)C)[C@@H](C(=O)O)N(C(=O)CC2(O)CCCC2)[C@H]1c1ccccc1 [Example I-99] ... +++ (≥350)
CC(C)(C)[C@H]1[C@H](NCc2cc3ccccc3o2)[C@H](c2ccccc2)N(C(=O)C2CCCCC2)[C@@H]1C(=O)O [Example I-46] ... ++ (≥150 and <350)
COc1cc(C(F)(F)F)ccc1CN[C@@H]1[C@@H](C(C)(C)C)[C@H](C(=O)O)N(C(=O)OC2CCC2)[C@@H]1c1ccccc1 (racemic) [III-114] ... +++ (≥350)
COc1ncc(C2CCCC2)cc1CN[C@H]1[C@H](C(C)(C)C)[C@@H](C(=O)O)N(C(=O)C2CCCCC2)[C@H]1c1ccccc1 [Example I-73] ... +++ (≥350)
CC(C)(C)[C@H]1[C@H](Nc2cccc(C(F)(F)F)c2)[C@H](c2ccccc2)N(C(=O)C2CCCCC2)[C@@H]1C(=O)O [Example I-56] ... +++ (≥350)
Cc1cc(C(F)(F)F)cc(N[C@@H]2[C@@H](C(C)(C)C)[C@H](C(=O)O)N(C(=O)[C@H]3C[C@H]4CC[C@@H]3C4)[C@@H]2c2ccccc2)n1 (racemic) [III-110] ... ++ (≥150 and <350)
COc1ccc2cc(C)nc(N[C@H]3[C@H](C(C)(C)C)[C@@H](C(=O)O)N(C(=O)C4CCCCC4)[C@H]3c3ccccc3)c2c1 [III-154] ... ++ (≥150 and <350)
CC(N[C@@H]1[C@@H](C(C)(C)C)[C@H](C(=O)O)N(C(=O)C2CCCCC2)[C@@H]1c1ccccc1)c1ccc2c(c1)OC(F)(F)O2 (mixture of isomers) [Example I-3] ... ++ (≥150 and <350)
COc1ccc(C(C)(C)C)cc1CN[C@H]1[C@H](C(C)(C)C)[C@@H](C(=O)O)N(C(=O)OC(C)C)[C@H]1c1cccnc1N(C)C [Example 66] ... +++ (≥350)
COc1ccc(C(C)(C)C)cc1CN[C@H]1[C@H](C(C)(C)C)[C@@H](C(=O)O)N(C(=O)[C@H]2OCC[C@H]2C(C)C)[C@H]1c1ccccc1 (relative stereo) [Example 23] ... +++ (≥350)
COc1ccc(C2(C)CCC2)cc1CN[C@H]1[C@H](C(C)(C)C)[C@@H](C(=O)O)N(C(=O)C2CCCCC2)[C@H]1c1cccnc1OC [Example I-238] ... +++ (≥350)
Cc1cc(C(F)(F)F)cc(N[C@@H]2[C@@H](C(C)(C)C)[C@H](C(=O)O)N(C(=O)C3CCCCC3)[C@@H]2c2ccccc2)n1 [Example 3] ... ++ (≥150 and <350)
